pIC50: −log10 of the molar value.
measurement.type: pIC50

The compound Cc1ccnc(-c2ccc3cc(C(=O)c4cnn(-c5ccc6[nH]c(C)nc6c5)c4N)[nH]c3c2)c1 on human FGFR3 enzyme (Homo sapiens (Human)): pIC50 was ≥ 6.52
